target: HIPK4 (human); experiment: radiometric filter-binding kinase assay, Kinase HotSpot; conditions: compound 0.5 µM; ATP 10 µM
Reported endpoint: residual activity (%)
Write the number in % without appending the unit.

As a guide, the following entries are already answered.
Oc1cccc(-c2nc(N3CCOCC3)c3oc4ncccc4c3n2)c1; 107
N#CC(C#N)=C(N)/C(C#N)=C/c1ccc(O)cc1; 99.7
N#C/C(=C(/N)Sc1ccc(N)cc1)c1ccccc1C(F)(F)F; 100
COc1cc2ncnc(Nc3cccc(Cl)c3)c2cc1OC; 64.4

Short answer please: residual activity, HIPK4 (human), entry CCOC(=O)c1c(C)[nH]c(/C=C2\C(=O)Nc3ccccc32)c1C 90.2

Short answer please: residual activity, HIPK4 (human), entry O=C1NC(=O)/C(=C/c2ccc3c(c2)OC(F)(F)O3)S1 99.4

The values you see were collected from the kinase profiling compilation of Christmann-Franck et al. (2016).
